# ASSAY INFO: chemical genetic growth profiling, strain panel (AID 1159580);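 also: tested at 20 µM; growth read once vehicle control cultures reached saturation at 30 °C; 1 = growth at the plate median or of vehicle wells; lower values mean less growth of the strain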
# SETTINGS: S. cerevisiae deletion strains, growth OD, locus YDL192W, strain arf1, active compounds read low
About 2,000 (36%) of roughly 5,500 compounds were called active. Roughly 18% stayed inconclusive and do not appear here. This is one part of the list.
Below: a set of entries, each annotated with reported normalized growth.

Solved cases (5 shown):
COc1cc2c(cc1OC)[C@@H]1C(=O)c3ccc4oc(C(C)C)cc4c3O[C@@H]1CO2 | 1.04 (inactive)
COC1=CC(=O)C[C@@H](C)[C@]12Oc1c(Cl)c(OC)cc(OC)c1C2=O | 0.988 (inactive)
CN[C@@H](C)[C@@H](O)c1ccccc1 | 0.989 (inactive)
OCCN1C[C@@H](O)[C@@H](O)C(O)C1CO (stereo partly specified) | 1 (inactive)
COP(=O)(OC)OC=C(Cl)Cl | 0.983 (inactive)

Reported normalized growth of CNC(C)[C@H](O)c1ccccc1 (stereo partly specified) : 0.998 (inactive)

Reported normalized growth of COc1cc2c(cc1OC)[C@@H]1C(=O)c3ccc(O)c(CC=C(C)C)c3O[C@@H]1CO2 : 1.03 (inactive)

Reported normalized growth of COc1cc2c(cc1OC)C1C(=O)c3ccc4c(c3OC1CO2)CCC(C)(C)O4 (stereo unspecified) : 1.01 (inactive)

Reported normalized growth of Cc1c(O)c(C(=O)CC(C)C)c2oc3c(C(=O)CC(C)C)c(O)c(C)c(O)c3c2c1O : 0.987 (inactive)

Reported normalized growth of OCC(O)C(O)C(O)CO (stereo unspecified) : 1.02 (inactive)

Reported normalized growth of CC(NCCc1ccc(O)cc1)C(O)c1ccc(O)cc1 (stereo unspecified) : 0.982 (inactive)

* * *

Below: a set of entries, each annotated with reported normalized growth.
# ASSAY INFO: chemical genetic growth profiling, strain panel (AID 1159580);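 also: tested at 20 µM; growth read once vehicle control cultures reached saturation at 30 °C; 1 = growth at the plate median or of vehicle wells; lower values mean less growth of the strain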
# SETTINGS: S. cerevisiae deletion strains, growth OD, locus YAL021C, strain ccr4, active compounds read low
Among all 5,500 compounds or so, about 2,000 (36%) were called active. Not shown: some 18% with an inconclusive outcome. Some of the results follow.
Please respond with just the number, no unit label.

Solved cases (5 shown):
C[C@]12CCC(=O)C=C1CCC1C2CC[C@@]2(C)C1CC[C@@H]2O (some centres not stated) | 0.967
CC(C)(O)[C@@H]1[C@H]2OC(=O)[C@@H]1[C@]1(O)C[C@H]3O[C@]34C(=O)O[C@H]2[C@]14C | 1.01
ClC1=C(Cl)C2(Cl)C3C(Cl)C=CC3C1(Cl)C2(Cl)Cl (configuration not stated) | 0.99
CC(=O)O[C@@H]1C[C@@]2(C)C(CC[C@@H]2C(C)=O)C2CCC3=CC(=O)CC[C@]3(C)C21 (some centres not stated) | 0.996
CC(=O)[C@H]1CCC2C3CCC4=CC(=O)CC[C@]4(C)C3CC[C@@]21C (some centres not stated) | 0.901

Reported normalized growth of CC1=C(CC(=O)O)c2cc(F)ccc2/C1=C\c1ccc(S(C)=O)cc1 (configuration not stated) : 1.02

Reported normalized growth of CCOC(=O)C(=O)C1(C(=O)OCC)Oc2cc(OC)cc(OC)c2C(=O)C1c1ccccc1 (configuration not stated) : 0.981

* * *

Below: a set of entries, each annotated with reported normalized growth.
# ASSAY INFO: chemical genetic growth profiling, strain panel (AID 1159580);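 also: tested at 20 µM; growth read once vehicle control cultures reached saturation at 30 °C; 1 = growth at the plate median or of vehicle wells; lower values mean less growth of the strain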
# SETTINGS: S. cerevisiae deletion strains, growth OD, locus YNL209W, strain ssb2, active compounds read low
Hit rate of the full screen: of about 5,500 compounds, about 2,000 (36%) were called active. About 18% were inconclusive and are not listed. The list shows a part of the results.
Please respond with just the number, no unit label.

Solved cases (5 shown):
CCOC(=O)c1c(C)cc(O)c(C=O)c1O | 0.392
CCN(CC)CCCC(C)Nc1c2ccc(Cl)cc2nc2ccc(OC)cc12 (stereo not given) | 0.985
C[C@H]1CC2C([C@@H](O)C[C@@]3(C)C2CC[C@]3(O)C(=O)CO)[C@@]2(C)C=CC(=O)C=C12 (stereo not given in full) | 1.02
CN(C)C(=S)SSC(=S)N(C)C | 0.0584
CCCCCCNC(=O)n1cc(F)c(=O)[nH]c1=O | 0.959

Reported normalized growth of COc1ccc2cc([C@H](C)CO)ccc2c1 : 1.01

Reported normalized growth of CN1CCc2cc3c(cc2[C@H]1C1OC(=O)c2c1ccc1c2OCO1)OCO3 (stereo not given in full) : 0.985

Reported normalized growth of c1ccc(N=Nc2ccccc2)cc1 : 0.991

Reported normalized growth of COc1ccc(OC)c(C(O)C(C)N)c1 (stereo not given) : 1

Reported normalized growth of CN1CCC(=C2c3ccccc3Sc3ccccc32)CC1 : 1

Reported normalized growth of COP(=O)(OC)OC=C(Cl)Cl : 0.998
